src = ChEMBL document CHEMBL1201862

System: HOP-62
Experiment: NCI tumour cell line growth inhibition, 48 h
The source made the active and inactive calls. No stated cut-off is given here; in the data, active = GI50 up to about 1.1 µM and inactive = higher.
Quick reference for GI50 among some molecules

Consider the following illustrative entries.
INSERT INTO assay_data (molecule, result) VALUES
  ('COc1cc(CC2CCc3nc(N)nc(N)c3C2)cc(OC)c1OC (configuration not stated)', '2.05 µM (inactive)'),
  ('COC(=O)C1(C)CCC(c2ccc(C)cc2)=C(CC(=O)O)C1 (configuration not stated)', '> 100 µM (inactive)'),
  ('COc1ccccc1C12OC(=O)C1(C)Oc1ccccc1C2=O (configuration not stated)', '> 100 µM (inactive)'),
  ('CC(C)N(O)C(=N)c1ccccc1', '> 100 µM (inactive)'),
  ('O=c1c2cc(Cl)ccc2n2nnc3ccc(NCCNCCO)c1c32', '1.41 µM (inactive)'),
  ('CCCNC1=Nc2ccccc2[C@@H]2N(C)c3ccccc3C(C)C[C@]12C (some centres not stated)', '16.4 µM (inactive)'),
  ('CC1(C)OC(=O)C(=C2CCC(C(=O)Nc3cccc(C(F)(F)F)c3)N2)C(=O)O1 (configuration not stated)', '> 100 µM (inactive)'),
  ('CCOC(=O)N1CCC(=O)C(CNC23CC4CC(CC(C4)C2)C3)C1 (configuration not stated)', '> 100 µM (inactive)'),
  ('O=C1CCCC1CN1CCCC1 (configuration not stated)', '> 67 µM (inactive)'),
  ('O=C1CCCc2cc3c(cc21)CCC3C(=O)O (configuration not stated)', '> 100 µM (inactive)');

-- ask Checklist item: GI50 tested on HOP-62, entry "CC1=C(c2nc3ccccc3s2)C(=O)OC1(C)C" , value?
-- reply > 100 µM (inactive)

-- ask Give the reported GI50 for "Cc1ccc(O)c(-c2cc(-c3cccc(Cl)c3)c(C#N)c(N)n2)c1" (system: HOP-62).
-- reply 20.6 µM (inactive)

====

Tested on: HOP-92
Test: NCI tumour cell line growth inhibition, 48 h
Active and inactive are the calls of the source. No stated cut-off is given here; in the data, active = GI50 up to about 1.1 µM and inactive = higher.
Log the outcome using a class from label 1 (active), label 0 (inactive)

INSERT INTO results (molecule, class_label) VALUES
  ('O=C1c2ccccc2C(=O)C1C(c1ccc([N+](=O)[O-])cc1)C1C(=O)c2ccccc2C1=O', 'label 0'),
  ('O=C(O)COc1cc(-c2ccccc2F)nc2cc3c(cc12)OCO3', 'label 0'),
  ('Cc1c(C(=O)/C=C/c2ccc(Cl)cc2)[n+]([O-])c2ccccc2[n+]1[O-]', 'label 0'),
  ('COc1ccc(/C=C\c2cc(OC)c(OC)c(OC)c2)cc1', 'label 1'),
  ('CCCC/C=C/C=C/C=C/CCCCCCCC(=O)OCC(COC(=O)CCCCCCC/C=C/C1C=CC(CCCC)C(C(=O)O)C1C(=O)O)OC(=O)CCCCCCC/C=C/C=C/C=C/CCCC.OCCNCO (stereo not drawn)', 'label 0'),
  ('Clc1ccccc1-c1nc(-c2ccncc2)no1 [PIFEXOLE]', 'label 0'),
  ('CC1=CCC[C@H]2[C@](C)(CC3=CC(=O)C4SCCSC4C3=O)[C@@H](C)CC[C@]12C (stereo partly drawn)', 'label 0');

Switching to the query record.
-- ask # outcome recorded in this test, key = COC(=O)[C@]1(C)[C@H]2C[C@H]3O[C@H]4[C@H](O)[C@@H](O)OC(CC(O)C(C5=CC(=O)OC5)C(C5=CC(=O)OC5)C(O)CC56CCCCC7[C@@H](C)[C@H](C[C@H]8[C@](C)(C(=O)OC)[C@H](O)CC[C@]78C)O[C@H]([C@@H](O)[C@H](O)O5)[C@H]6O)(CCCCC([C@@H]3C)[C@]2(C)CC[C@@H]1O)[C@H]4O (stereo partly drawn)
-- reply label 1
